Each item that follows carries a reported pIC50.
- Test system: SK-N-MC cells
- Method summary: MTT cellular proliferation assay, SK-N-MC neuroepithelioma cells
- Type: cell-based, human
- Details: Homo sapiens; SK-N-MC, 48 h, 37 °C, MTT, mean ± SD (3 experiments)
pIC50: −log10 of the molar value.
Readout type: pIC50

Compound | Result number
CC(=O)N(O)CCCCCNC(=O)CCC(=O)N(O)CCCCCNC(=O)CCC(=O)N(O)CCCCCN [DFO, desferrioxamine, reference compound] | 4.34
CN(C)C(=S)NN=C(c1ccccn1)c1ccccn1 [Dp44mT, reference compound] | 7.37
CCN(C)C(=S)NN=C(c1ccccn1)c1ccccn1 [Dp4e4mT] | 7.37
CN(C(=S)NN=C(c1ccccn1)c1ccccn1)C1CCCCC1 [DpC, reference compound] | 7.06
